Origin of values: ChEMBL document CHEMBL1154598

Entries and their measured fold change (FC) follow.
Target: Peroxisome proliferator-activated receptor alpha (Homo sapiens)
Test: Agonist activity at human PPARalpha expressed in HEK293 cells co-transfected with PPRE assessed as beta-galactosidase signal at 40 uM after 48 hrs by reporter gene assay relative to control
Assay type: functional, cell-based

What value of fold change (FC) has been reported for the following compound? O=c1c(O)c(-c2ccc(O)cc2)oc2cc(O)cc(O)c12
2.6

What value of fold change (FC) has been reported for the following compound? O=c1cc(-c2ccc(O)cc2)oc2cccc(O)c12
3.7

What value of fold change (FC) has been reported for the following compound? COc1ccc([C@@H]2CC(=O)c3c(O)cc(O)cc3O2)cc1O
2

What value of fold change (FC) has been reported for the following compound? O=c1cc(-c2ccc(O)cc2)oc2cc(O)cc(O)c12
2.3

What value of fold change (FC) has been reported for the following compound? COc1ccc2c(=O)c(-c3ccc4c(c3)OCO4)coc2c1
2.4

What value of fold change (FC) has been reported for the following compound? O=c1cc(-c2ccc(O)c(O)c2)oc2ccccc12
7.7

What value of fold change (FC) has been reported for the following compound? O=c1c(-c2ccc(O)cc2)coc2cc(O)c(O)cc12
4

What value of fold change (FC) has been reported for the following compound? COc1cc(OC)cc(-c2coc3cc(O)ccc3c2=O)c1
25.3

What value of fold change (FC) has been reported for the following compound? COc1cc(-c2cc(=O)c3c(O)cc(O)cc3o2)ccc1O
1.3

What value of fold change (FC) has been reported for the following compound? COc1ccc(-c2cc(=O)c3c(O)cc(O)cc3o2)cc1
5.2

What value of fold change (FC) has been reported for the following compound? O=c1cc(-c2cccc(O)c2)oc2cc(O)ccc12
14.8

What value of fold change (FC) has been reported for the following compound? O=c1cc(-c2ccc(O)cc2)oc2cc(O)ccc12
2.6

---

Molecular target: Peroxisome proliferator-activated receptor gamma (Homo sapiens)
Experiment: Agonist activity at human PPARgamma assessed as luciferase activity by transactivation assay
Assay type: functional
Entries and their measured EC50 follow.
Your answer is read as µM, so omit the unit and give the number.

MOLECULE | OUTPUT UNIT | EC50
O=c1c(-c2ccc(F)cc2)coc2cc(O)ccc12 | µM | 15.4
O=c1c(-c2ccc3c(c2)OCO3)coc2cc(O)ccc12 [PSEUDOBAPTOGENIN] | µM | 26.9
COc1cc(OC)cc(-c2coc3cc(O)ccc3c2=O)c1 | µM | 18.9

What value of EC50 has been reported for the following molecule? COc1cccc(-c2coc3cc(O)ccc3c2=O)c1
22.3

---

Target: Peroxisome proliferator-activated receptor gamma (Homo sapiens) (UniProt P37231)
Sequence (whole entry): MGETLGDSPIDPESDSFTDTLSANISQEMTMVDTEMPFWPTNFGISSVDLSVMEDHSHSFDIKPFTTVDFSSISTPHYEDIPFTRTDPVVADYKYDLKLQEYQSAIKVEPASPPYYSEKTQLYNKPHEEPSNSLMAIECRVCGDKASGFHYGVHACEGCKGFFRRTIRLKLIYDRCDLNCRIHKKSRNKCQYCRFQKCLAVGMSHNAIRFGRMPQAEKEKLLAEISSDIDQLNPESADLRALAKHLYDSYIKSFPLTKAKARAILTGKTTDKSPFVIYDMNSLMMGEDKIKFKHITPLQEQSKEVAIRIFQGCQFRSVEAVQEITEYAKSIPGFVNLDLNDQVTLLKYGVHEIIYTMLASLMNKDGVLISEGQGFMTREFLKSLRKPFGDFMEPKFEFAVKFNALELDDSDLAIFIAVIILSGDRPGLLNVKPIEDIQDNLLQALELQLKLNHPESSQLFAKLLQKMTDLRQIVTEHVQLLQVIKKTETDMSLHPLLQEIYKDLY
Experiment: Agonist activity at human PPARgamma expressed in HEK293 cells co-transfected with PPRE assessed as beta-galactosidase signal at 25 uM after 48 hrs by reporter gene assay relative to control
Type: functional, cell-based
I'd appreciate it if you marked entries Satisfied when fold change (FC) is lower than 4 and Not satisfied when it is not.

Would you please look over these solved cases?
COMPOUND | LABEL VALUE
COc1cc(-c2coc3cc(OC4CCCCO4)ccc3c2=O)cc(OC)c1OC (centres undefined) | Satisfied
COc1ccc2c(=O)c(-c3ccc4c(c3)OCO4)coc2c1 | Not satisfied

Given O=c1c(-c2ccc3c(c2)OCCO3)coc2cc(O)ccc12 , is recorded fold change (FC) strictly lower than 4?
Not satisfied

Given CCc1cc2c(=O)c(-c3ccc4c(c3)OCO4)coc2cc1O , is recorded fold change (FC) strictly lower than 4?
Not satisfied

---

Biological target: Peroxisome proliferator-activated receptor alpha (Homo sapiens)
Assay: Agonist activity at human PPARalpha expressed in HEK293 cells co-transfected with PPRE assessed as beta-galactosidase signal at 25 uM after 48 hrs by reporter gene assay relative to control
Assay type: functional, cell-based
QUANTITY MEASURED: fold change (FC)
No unit in the answer, only the number.

Please review the entries below; each comes with its answer.
MOLECULE | fold change (FC)
O=c1c(O)c(-c2ccc(O)cc2)oc2cc(O)cc(O)c12 | 1.8
O=c1cc(-c2ccccc2)oc2cc(O)cc(O)c12 | 3.4
O=c1c(-c2ccc3c(c2)OCO3)coc2cc(O)ccc12 [PSEUDOBAPTOGENIN] | 5.6

What value of fold change (FC) has been reported for the following molecule? COc1ccc(-c2cc(=O)c3c(O)cc(O)cc3o2)cc1O
2.8

What value of fold change (FC) has been reported for the following molecule? O=c1cc(-c2ccccc2O)oc2cc(O)ccc12
3.6

What value of fold change (FC) has been reported for the following molecule? O=c1cc(-c2ccc(O)c(O)c2)oc2ccccc12
2.8

---

Target: Peroxisome proliferator-activated receptor alpha (Homo sapiens) (UniProt Q07869)
Experiment: Agonist activity at human PPARalpha expressed in HEK293 cells co-transfected with PPRE assessed as beta-galactosidase signal at 40 uM after 48 hrs by reporter gene assay relative to control
Assay type: functional, cell-based
Note that class boundaries on fold change (FC) are c1: < 4; c2: ≥ 4 and < 10; c3: ≥ 10

COMPOUND | LABEL VALUE
O=c1cc(-c2ccccc2O)oc2cc(O)ccc12 | c2

Would you kindly look at the next entry?
Which class holds O=C1C[C@@H](c2ccc(O)cc2)Oc2cc(O)cc(O)c21 ?
c1

---

Molecular target: Peroxisome proliferator-activated receptor alpha (Homo sapiens)
Sequence (whole entry): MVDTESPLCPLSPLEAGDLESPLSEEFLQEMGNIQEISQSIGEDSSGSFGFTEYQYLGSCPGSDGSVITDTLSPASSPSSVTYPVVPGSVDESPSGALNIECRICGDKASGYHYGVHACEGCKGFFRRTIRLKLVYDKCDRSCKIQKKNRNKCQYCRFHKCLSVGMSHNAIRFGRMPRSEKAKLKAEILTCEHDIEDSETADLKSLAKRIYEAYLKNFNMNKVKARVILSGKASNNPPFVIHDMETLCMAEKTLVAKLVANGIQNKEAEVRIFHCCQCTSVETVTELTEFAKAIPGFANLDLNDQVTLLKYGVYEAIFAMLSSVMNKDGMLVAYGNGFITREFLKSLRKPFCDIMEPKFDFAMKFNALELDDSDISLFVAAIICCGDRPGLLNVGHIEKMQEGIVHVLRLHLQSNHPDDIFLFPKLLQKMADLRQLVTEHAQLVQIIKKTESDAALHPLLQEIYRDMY
Experiment: Agonist activity at human PPARalpha expressed in HEK293 cells co-transfected with PPRE assessed as beta-galactosidase signal at 25 uM after 48 hrs by reporter gene assay relative to control
Type: functional, cell-based
Label satisfied when fold change (FC) is at or above 2; otherwise label not satisfied.

Would you please look over these solved cases?
MOLECULE | LABEL VALUE
O=c1c(-c2ccc(O)cc2)coc2cc(O)c(O)cc12 | not satisfied
O=c1cc(-c2ccc(O)cc2)oc2cccc(O)c12 | satisfied
O=C1C[C@@H](c2ccc(O)cc2)Oc2cc(O)cc(O)c21 | not satisfied

Is reported fold change (FC) greater than or equal to 2 here: COc1ccc(-c2cc(=O)c3c(O)cc(O)cc3o2)cc1
satisfied

Is reported fold change (FC) greater than or equal to 2 here: O=c1c(-c2ccc3c(c2)OCCO3)coc2cc(OC3CCCCO3)ccc12 (stereo not given)
satisfied

---

Biological target: Peroxisome proliferator-activated receptor gamma (Homo sapiens) (UniProt P37231)
Assay: Agonist activity at human PPARgamma expressed in HEK293 cells co-transfected with PPRE assessed as beta-galactosidase signal at 25 uM after 48 hrs by reporter gene assay relative to control
Type: functional, cell-based
QUANTITY MEASURED: fold change (FC)
No unit in the answer, only the number.

CHEMICAL SMILES | OBSERVED RESULT
O=c1c(-c2ccc(O)cc2)coc2cc(O)cc(O)c12 | 3.4
O=c1cc(-c2cccc(O)c2)oc2cc(O)ccc12 | 6.3
O=C1C[C@@H](c2ccc(O)cc2)Oc2cc(O)cc(O)c21 | 1.7

What value of fold change (FC) has been reported for the following compound? O=c1cc(-c2ccc(O)c(O)c2)oc2ccccc12
5

What value of fold change (FC) has been reported for the following compound? O=c1cc(-c2ccccc2O)oc2cc(O)ccc12
6.8

What value of fold change (FC) has been reported for the following compound? COc1cccc(-c2coc3cc(O)ccc3c2=O)c1
57.5

What value of fold change (FC) has been reported for the following compound? Oc1ccc(-c2n[nH]c(C(F)(F)F)c2-c2ccc(F)cc2)c(O)c1
3.9

What value of fold change (FC) has been reported for the following compound? O=c1c(-c2ccc(F)cc2F)coc2cc(O)ccc12
13.8

What value of fold change (FC) has been reported for the following compound? O=c1cc(-c2ccc(O)cc2)oc2cccc(O)c12
8.9

What value of fold change (FC) has been reported for the following compound? COc1cc(-c2cc(=O)c3c(O)cc(O)cc3o2)ccc1O
2.2

What value of fold change (FC) has been reported for the following compound? COc1cccc(/C=C/C(=O)c2ccc(O)cc2O)c1
2.1

What value of fold change (FC) has been reported for the following compound? COc1ccc(/C=C/C(=O)c2ccc(O)cc2O)cc1
2.6
